Data provenance is patent US20230381229A1.

Reported Fold Change Compared to WT PD-L1 values for the following binders.
- studyTarget: PD-1 expressed on cells (human)
- Sequence (chain, as listed by the source): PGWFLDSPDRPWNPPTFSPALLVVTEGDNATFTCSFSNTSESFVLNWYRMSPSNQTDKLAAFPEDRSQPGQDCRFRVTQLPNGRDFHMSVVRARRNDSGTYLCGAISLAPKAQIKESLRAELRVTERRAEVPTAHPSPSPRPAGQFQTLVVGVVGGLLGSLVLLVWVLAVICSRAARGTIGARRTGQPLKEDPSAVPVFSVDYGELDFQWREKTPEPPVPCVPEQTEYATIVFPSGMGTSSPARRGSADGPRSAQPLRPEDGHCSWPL
- procedureSummary: flow cytometry, cells expressing PD-1
Could you respond with only the numeric value?

// worked examples, Fold Change Compared to WT PD-L1 included
{"binder": "variant PD-L1 ECD-Fc K57R, S99G, L124S, K144Q (Fc fusion) FTVTVPKDLYVVEYGSNMTIECKFPVEKQLDLAALIVYWEMEDKNIIQFVHGEEDLRVQHSSYRQRARLLKDQLSLGNAALQITDVKLQDAGVYRCMIGYGGADYKRITVKVNAPYNKINQRISVVDPVTSEHELTCQAEGYPQAEVIWTSSDHQVLSGKTTTTNSKREEKLFNVTSTLRINTTTNEIFYCTFRRLDPEENHTAELVIPELPLAHPPNER", "recordedMeasurement": 0.7}
{"binder": "variant PD-L1 ECD-Fc I36T, M97L, Q155H, F193S, N201Y (Fc fusion) FTVTVPKDLYVVEYGSNMTIECKFPVEKQLDLAALTVYWEMEDKNIIQFVHGEEDLKVQHSSYRQRARLLKDQLSLGNAALQITDVKLQDAGVYRCLISYGGADYKRITVKVNAPYNKINQRILVVDPVTSEHELTCQAEGYPKAEVIWTSSDHHVLSGKTTTTNSKREEKLFNVTSTLRINTTTNEIFYCTSRRLDPEEYHTAELVIPELPLAHPPNER", "recordedMeasurement": 0}
{"binder": "variant PD-L1 ECD-Fc N17D, M97L, S99G (Fc fusion) FTVTVPKDLYVVEYGSDMTIECKFPVEKQLDLAALIVYWEMEDKNIIQFVHGEEDLKVQHSSYRQRARLLKDQLSLGNAALQITDVKLQDAGVYRCLIGYGGADYKRITVKVNAPYNKINQRILVVDPVTSEHELTCQAEGYPKAEVIWTSSDHQVLSGKTTTTNSKREEKLFNVTSTLRINTTTNEIFYCTFRRLDPEENHTAELVIPELPLAHPPNER", "recordedMeasurement": 3.2}
{"binder": "variant PD-L1 ECD-Fc K57R, S99G, R195G (Fc fusion) FTVTVPKDLYVVEYGSNMTIECKFPVEKQLDLAALIVYWEMEDKNIIQFVHGEEDLRVQHSSYRQRARLLKDQLSLGNAALQITDVKLQDAGVYRCMIGYGGADYKRITVKVNAPYNKINQRILVVDPVTSEHELTCQAEGYPKAEVIWTSSDHQVLSGKTTTTNSKREEKLFNVTSTLRINTTTNEIFYCTFRGLDPEENHTAELVIPELPLAHPPNER", "recordedMeasurement": 0.8}

Return reported Fold Change Compared to WT PD-L1; argument: variant PD-L1 ECD-Fc Y10F, M18V, S99G, Q138R, T203A (Fc fusion) FTVTVPKDLFVVEYGSNVTIECKFPVEKQLDLAALIVYWEMEDKNIIQFVHGEEDLKVQHSSYRQRARLLKDQLSLGNAALQITDVKLQDAGVYRCMIGYGGADYKRITVKVNAPYNKINQRILVVDPVTSEHELTCRAEGYPKAEVIWTSSDHQVLSGKTTTTNSKREEKLFNVTSTLRINTTTNEIFYCTFRRLDPEENHAAELVIPELPLAHPPNER 0
